Can you tell me z-score for the items I'm about to list?
experiment: MM1S cell viability effects, profiling panel, calcein-AM fluorescence, 48 h, basal (AID 1165);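 also: viability of MM1S multiple myeloma cells under basal unstimulated conditions; test concentration not given here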
conditions: higher = more signal
// no unit, no text: just the number

Task: Which measured z-score value corresponds to `CO[C@H]1COC(=O)CC=C[C@H](C)[C@@H](OC)COC(=O)[C@@H](C)NC(=O)CC=C[C@@H]1C` ?
Output: -0.227

Task: Same question, `CCN1C(=O)[C@H]2[C@H]3[C@H](O)[C@H](O)CC(=O)[C@@H]3CC[C@H]2C1=O` this time
Output: -0.681

Task: Same question, O=C1OCCC=C1C(O)CCc1ccccc1 (stereo not drawn) this time
Output: -0.575

Task: Same question, `CCc1cc2c(nc1CC)CCN(CCC(C)=NO[C@H](C)c1cn([C@H](CO)Cc3ccccc3)nn1)C2` this time
Output: 0.341

Task: Same question, `Cc1ccc(S(=O)(=O)N[C@H]2COC(=O)CC=C[C@H](C)[C@@H](NS(=O)(=O)c3ccc(C)cc3)COC(=O)CC=C[C@@H]2C)cc1` this time
Output: 0.248

Task: Same question, `CO[C@H]1COC(=O)[C@H](C)NC(=O)CC=C[C@@H](C)[C@H](OC)COC(=O)[C@@H](OCc2ccccc2)C=C[C@@H]1C` this time
Output: -0.144

Task: Same question, `CON=CC[C@@H]1C=C[C@H](OC(C)=O)[C@@H](COC(C)=O)O1` this time
Output: -1.09

Task: Same question, `CC(C)CON=C1C[C@@H](O)[C@@H](O)[C@@H]2[C@@H]3C(=O)N(c4cccc(Oc5ccccc5)c4)C(=O)[C@@H]3CC[C@@H]12` this time
Output: -0.779

###

tested_system: Calmodulin-1 (Homo sapiens)
experiment: calcium-bound CALM1 binders on microarrays, profiling panel, artefact control for SMM control-protein annotation, biochemical, small-molecule microarray, Cy5-labelled CALM1, plus calcium (AID 1112);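 also: score merges spot fluorescence with signal to noise from triplicate slides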
conditions: Cy5-CALM1 binding fluorescence, higher = more signal
readout_kind: composite z-score
// no unit, no text: just the number

Task: Which measured composite z-score value corresponds to `Cc1ccc(S(=O)(=O)N[C@H]2COC(=O)CC=C[C@@H](C)COC(=O)CC=C[C@@H]2C)cc1` ?
Output: -1.24

Task: Same question, `C[C@H]1COC(=O)[C@@H]2CCCN2C(=O)[C@@H](C)COC(=O)[C@H](Cc2ccccc2)NC1=O` this time
Output: -0.447

Task: Same question, `CC(C)=CCCC(C)=CCON=C1C[C@@H](O)[C@@H](O)[C@@H]2[C@@H]3C(=O)N(C[C@@H]4CCCO4)C(=O)[C@@H]3CC[C@H]12` this time
Output: 0.228

Task: Same question, `COC(=O)NCC=Cc1nc(CCCO)co1` this time
Output: -0.98

Task: Same question, `C[C@@H](c1ccccc1)N1C(=O)[C@H]2[C@H]3[C@H](O)[C@H](O)CC(=O)[C@H]3CC[C@H]2C1=O` this time
Output: -0.255

Task: Same question, CCOC(=O)[C@H](CC(C)C)NC(=O)CCC1CC(OC(=O)NCc2cccc3ccccc23)CC2(CCCC(COC(=O)NCC3CCCCC3)O2)O1 (stereo partly specified) this time
Output: -0.376

Task: Same question, `C[C@@H]1CC[C@H]2C(=O)O[C@@H](COc3ccc(C(C)(C)C)cc3)CN2[C@@H]1c1ccc(Br)cc1` this time
Output: 0.578

Task: Same question, `CCCNC(=O)OC[C@H]1O[C@H](c2ccccc2)C=C[C@@H]1Oc1ccc(OC)cc1` this time
Output: -0.202

Task: Same question, `COC(=O)[C@@H]1CC[C@@H](C)[C@H](c2ccc(Br)cc2)N1` this time
Output: -0.0163

Task: Same question, `CC(C)(C)N1C(=O)[C@H]2[C@H]3[C@H](O)[C@H](O)CC(=NOCc4ccccc4)[C@H]3CC[C@H]2C1=O` this time
Output: -0.272

Task: Same question, `COc1ccc(O[C@@H]2[C@H](O)CO[C@H]2C=Cc2ccccc2)cc1` this time
Output: -0.246

Task: Same question, CCOC(=O)[C@H](Cc1ccccc1)NC(=O)CCC1CC(OC(=O)NCCc2ccc(F)cc2)CC2(CCCC(COC(=O)NCCc3ccc(Cl)cc3)O2)O1 (stereo partly specified) this time
Output: 0.198

Task: Same question, `O=c1n(Cc2cc3c(cc2Cl)OCO3)c(=O)n2n1CC[C@@H]1C(=NOCc3ccccc3)[C@H]3O[C@H]3[C@@H](O)[C@@H]12` this time
Output: -0.827

Task: Same question, `COc1ccc(COC(=O)NN=C2C[C@@H](O)[C@@H](O)[C@@H]3[C@@H]4C(=O)N(Cc5ccccc5)C(=O)[C@@H]4CC[C@H]23)cc1` this time
Output: -0.435

Task: Same question, `COc1cc(O)c(C(=O)C=Cc2ccc3c(c2)OCO3)c(OC)c1` this time
Output: -0.582

Task: Same question, CCOC(=O)[C@H](Cc1ccccc1)NC(=O)CCC1CC(OC(=O)NCc2ccc3c(c2)OCO3)CC2(CCCC(COC(=O)NCCC(C)C)O2)O1 (stereo partly specified) this time
Output: -0.252

Task: Same question, `COc1ccc(O[C@H]2C=C[C@@H](c3ccccc3)O[C@@H]2CON=C(C)C)cc1` this time
Output: 0.495

Task: Same question, COC(=O)[C@H](C)NC(=O)CCC1CC(OC(=O)NCc2ccc3c(c2)OCO3)CC2(CCCC(COC(=O)NCC3CCCCC3)O2)O1 (stereo partly specified) this time
Output: -0.0553

Task: Same question, `O=C1C[C@@H](O)[C@@H](O)[C@@H]2[C@@H]3C(=O)N(C[C@@H]4CCCO4)C(=O)[C@@H]3CC[C@@H]12` this time
Output: -0.426

Task: Same question, `CC(C)=CCCC(C)=CCON=C1C[C@@H](O)[C@@H](O)[C@@H]2[C@@H]3C(=O)N(C4CCCCC4)C(=O)[C@@H]3CC[C@@H]12` this time
Output: -1.15

Task: Same question, `CCOC(=O)NN=C1C[C@@H](O)[C@@H](O)[C@@H]2[C@@H]3C(=O)N(Cc4ccc5c(c4)OCO5)C(=O)[C@@H]3CC[C@H]12` this time
Output: -0.0188

Task: Same question, `COC(=O)C=CCCc1coc(C=CCNC(=O)OC)n1` this time
Output: -1.53

Task: Same question, `CC(=O)OC[C@H]1O[C@H](CC=NO[C@H](C)c2cn([C@H](CO)Cc3ccccc3)nn2)C=C[C@@H]1OC(C)=O` this time
Output: -0.367

Task: Same question, `Cc1cc2c(nc1C)CCCN2CC(O)CN1CCCc2nc(C)c(C)cc21` this time
Output: -0.322

Task: Same question, `CO[C@H]1COC(=O)[C@@H](C)COC(=O)[C@@H](OCc2ccccc2)C=C[C@@H]1C` this time
Output: -0.642

Task: Same question, `CCN1C(=O)[C@@H]2[C@H]3C(=CC[C@@H]2C1=O)C1(OCCCO1)[C@H]1O[C@H]1[C@H]3O` this time
Output: -0.536

Task: Same question, `CC(C)CON=C1C[C@@H](O)[C@@H](O)[C@@H]2[C@@H]3C(=O)N(Cc4ccc5c(c4)OCO5)C(=O)[C@@H]3CC[C@H]12` this time
Output: -0.576

Task: Same question, `CC(C)=CCCC(C)=CCON=C1C[C@@H](O)[C@@H](O)[C@@H]2[C@@H]3C(=O)N(c4ccc(F)cc4F)C(=O)[C@@H]3CC[C@@H]12` this time
Output: 0.0144

Task: Same question, `CC(C)CON=C1C[C@@H](O)[C@@H](O)[C@@H]2[C@@H]3C(=O)N(c4ccc(F)cc4F)C(=O)[C@@H]3CC[C@H]12` this time
Output: -0.809

Task: Same question, CCOC(=O)[C@H](Cc1ccccc1)NC(=O)CCC1CC(OC(=O)NCCc2ccc(F)cc2)CC2(CCCC(COC(=O)NCCc3ccccc3OC)O2)O1 (stereo partly specified) this time
Output: -0.403

Task: Same question, `C=CC[C@@H]1C=C[C@H](ON=C2[C@H]3CCn4c(=O)n(-c5ccccc5)c(=O)n4[C@H]3[C@H](O)[C@@H]3O[C@H]23)[C@@H](CO)O1` this time
Output: -0.0461
